Data origin: patent US20210277008A1

target: TrkB (Homo sapiens); construct: purchased Invitrogen; assay: HTRF KinEASE kinase assay, TrkB enzyme; type: biochemical; details: recombinant Human TRK enzyme, NTRK2 1 nM, read-out: TrkB Enz (nM), Trk inhibition activity expressed as IC50
Sequence (Q16620 32-822): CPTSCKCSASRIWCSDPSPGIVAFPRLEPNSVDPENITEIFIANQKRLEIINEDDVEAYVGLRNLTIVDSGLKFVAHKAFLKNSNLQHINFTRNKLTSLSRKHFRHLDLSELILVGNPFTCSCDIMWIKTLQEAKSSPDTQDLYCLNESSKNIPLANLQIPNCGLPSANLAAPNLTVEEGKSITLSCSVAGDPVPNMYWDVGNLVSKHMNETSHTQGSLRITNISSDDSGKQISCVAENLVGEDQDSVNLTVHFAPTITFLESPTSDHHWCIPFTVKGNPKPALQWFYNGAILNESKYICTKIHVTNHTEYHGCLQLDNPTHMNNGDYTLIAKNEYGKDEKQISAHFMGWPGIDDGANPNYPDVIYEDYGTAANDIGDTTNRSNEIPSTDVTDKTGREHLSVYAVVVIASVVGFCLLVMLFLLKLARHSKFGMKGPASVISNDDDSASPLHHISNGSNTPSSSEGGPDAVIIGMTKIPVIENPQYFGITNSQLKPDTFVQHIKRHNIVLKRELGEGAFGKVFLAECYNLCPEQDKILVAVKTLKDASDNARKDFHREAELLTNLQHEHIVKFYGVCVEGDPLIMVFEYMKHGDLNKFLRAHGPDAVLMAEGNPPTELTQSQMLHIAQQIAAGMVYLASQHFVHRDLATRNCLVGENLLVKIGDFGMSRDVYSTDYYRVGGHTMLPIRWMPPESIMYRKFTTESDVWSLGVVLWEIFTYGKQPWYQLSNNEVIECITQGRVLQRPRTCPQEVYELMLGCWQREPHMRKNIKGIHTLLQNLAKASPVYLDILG
ENDPOINT LABEL: IC50 (nM)
// note: answer is a bare numeric in nM

COMPOUND	UNITS	IC50
CSc1ccc(F)cc1[C@H]1CCCN1c1ccc2ncc(/C(=N/C#N)N[C@@H]3CCCOC3)n2n1 [Example 1]	nM	0.88
CCN/C(=N\C#N)c1cnc2ccc(N3C[C@@H](F)C[C@@H]3c3cc(F)cc(SC)c3)nn12 [Example 3]	nM	0.37
CSc1ccc(F)cc1[C@H]1CCCN1c1ccc2ncc(/C(=N/C#N)NCc3cccc(O)c3)n2n1 [Example 7]	nM	1.55
CSc1ccc(F)cc1[C@H]1CCCN1c1ccc2ncc(/C(=N/C#N)N[C@H]3CCCOC3)n2n1 [Example 2]	nM	0.83
CCN/C(=N\C#N)c1cnc2ccc(N3C[C@@H](F)C[C@@H]3c3cc(F)ccc3SC)nn12 [Example 4]	nM	0.23
CSc1ccc(F)cc1[C@H]1C[C@H](F)CN1c1ccc2ncc(/C(=N/C#N)NC3CCCCC3)n2n1 [Example 6]	nM	0.7

Consider the record given below.
# query: IC50 of entry CCCCN/C(=N\C#N)c1cnc2ccc(N3C[C@@H](F)C[C@@H]3c3cc(F)ccc3SC)nn12 [Example 5] 0.41

----------
target: TrkC (Homo sapiens, UniProt Q16288); construct: purchased Invitrogen; assay: HTRF KinEASE kinase assay, TrkC enzyme; type: biochemical; details: recombinant Human TRK enzyme, NTRK3 10 nM, read-out: TrkC Enz (nM), Trk inhibition activity expressed as IC50
Sequence (Q16288 32-839): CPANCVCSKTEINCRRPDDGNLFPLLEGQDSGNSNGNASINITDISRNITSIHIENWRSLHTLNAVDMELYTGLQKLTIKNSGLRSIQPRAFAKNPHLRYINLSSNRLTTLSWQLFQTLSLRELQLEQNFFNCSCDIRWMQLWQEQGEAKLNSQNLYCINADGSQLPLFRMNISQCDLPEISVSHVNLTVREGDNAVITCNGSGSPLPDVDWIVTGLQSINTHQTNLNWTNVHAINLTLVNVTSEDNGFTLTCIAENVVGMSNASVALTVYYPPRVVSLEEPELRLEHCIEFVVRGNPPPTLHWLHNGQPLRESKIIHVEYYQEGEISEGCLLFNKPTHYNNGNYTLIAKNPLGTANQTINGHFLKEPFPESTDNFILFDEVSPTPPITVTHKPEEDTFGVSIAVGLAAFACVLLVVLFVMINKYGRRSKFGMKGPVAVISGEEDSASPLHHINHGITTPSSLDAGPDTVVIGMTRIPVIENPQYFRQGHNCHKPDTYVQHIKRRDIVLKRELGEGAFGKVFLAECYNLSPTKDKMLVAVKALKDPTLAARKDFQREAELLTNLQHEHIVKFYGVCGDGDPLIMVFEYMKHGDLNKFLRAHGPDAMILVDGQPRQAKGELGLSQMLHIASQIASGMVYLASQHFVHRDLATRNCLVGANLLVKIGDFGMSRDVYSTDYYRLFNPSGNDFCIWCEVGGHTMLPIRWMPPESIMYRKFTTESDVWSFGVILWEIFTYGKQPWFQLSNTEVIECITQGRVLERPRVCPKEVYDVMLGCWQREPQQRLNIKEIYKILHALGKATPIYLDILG
List of IC50 values.
Phrase the answer as number then unit, nothing more needed.

The following molecules have reported results that may help.
MOLECULE	IC50
CSc1ccc(F)cc1[C@H]1C[C@H](F)CN1c1ccc2ncc(/C(=N/C#N)NC3CCCCC3)n2n1	1.91 nM
CCCCN/C(=N\C#N)c1cnc2ccc(N3C[C@@H](F)C[C@@H]3c3cc(F)ccc3SC)nn12	1.61 nM
CSc1ccc(F)cc1[C@H]1CCCN1c1ccc2ncc(/C(=N/C#N)NCc3cccc(O)c3)n2n1	3.16 nM
CSc1ccc(F)cc1[C@H]1CCCN1c1ccc2ncc(/C(=N/C#N)N[C@@H]3CCCOC3)n2n1	1.6 nM
CSc1ccc(F)cc1[C@H]1CCCN1c1ccc2ncc(/C(=N/C#N)N[C@H]3CCCOC3)n2n1	1.78 nM

For the molecule CCN/C(=N\C#N)c1cnc2ccc(N3C[C@@H](F)C[C@@H]3c3cc(F)ccc3SC)nn12 , what IC50 is on record? 1 nM

Value lookup for IC50; key = CCN/C(=N\C#N)c1cnc2ccc(N3C[C@@H](F)C[C@@H]3c3cc(F)cc(SC)c3)nn12 1.53 nM

----------
Items are presented alongside their recorded IC50.
biological target: TrkA (Homo sapiens, UniProt P04629); construct: purchased Invitrogen; assay: HTRF KinEASE kinase assay, TrkA enzyme; assay type: biochemical; settings: recombinant Human TRK enzyme, NTRK1 4 nM, read-out: TrkA Enz (nM), Trk inhibition activity expressed as IC50
Sequence (P04629 33-796): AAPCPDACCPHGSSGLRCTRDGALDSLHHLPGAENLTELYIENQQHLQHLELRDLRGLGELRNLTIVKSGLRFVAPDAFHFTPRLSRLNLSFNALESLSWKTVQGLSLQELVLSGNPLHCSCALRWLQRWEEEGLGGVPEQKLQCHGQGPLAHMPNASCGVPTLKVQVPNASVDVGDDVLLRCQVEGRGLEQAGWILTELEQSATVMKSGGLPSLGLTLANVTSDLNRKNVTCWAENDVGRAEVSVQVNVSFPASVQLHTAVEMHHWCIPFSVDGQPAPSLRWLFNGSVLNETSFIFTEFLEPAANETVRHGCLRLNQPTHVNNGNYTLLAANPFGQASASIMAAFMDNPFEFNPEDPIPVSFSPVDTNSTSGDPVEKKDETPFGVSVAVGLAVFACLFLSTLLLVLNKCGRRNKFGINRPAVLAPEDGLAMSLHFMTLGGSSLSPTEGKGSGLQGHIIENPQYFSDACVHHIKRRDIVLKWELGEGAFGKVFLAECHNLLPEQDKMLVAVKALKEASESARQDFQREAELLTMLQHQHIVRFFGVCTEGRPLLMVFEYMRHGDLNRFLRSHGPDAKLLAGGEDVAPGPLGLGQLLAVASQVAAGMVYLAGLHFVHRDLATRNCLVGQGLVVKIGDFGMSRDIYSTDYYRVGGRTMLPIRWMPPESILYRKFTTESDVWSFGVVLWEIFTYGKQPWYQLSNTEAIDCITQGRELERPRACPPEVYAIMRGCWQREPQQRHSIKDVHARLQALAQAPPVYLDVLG

Completed entries (count: 5):
MOLECULE	IC50
CSc1ccc(F)cc1[C@H]1CCCN1c1ccc2ncc(/C(=N/C#N)N[C@H]3CCCOC3)n2n1	1.04 nM
CCCCN/C(=N\C#N)c1cnc2ccc(N3C[C@@H](F)C[C@@H]3c3cc(F)ccc3SC)nn12	1.1 nM
CCN/C(=N\C#N)c1cnc2ccc(N3C[C@@H](F)C[C@@H]3c3cc(F)cc(SC)c3)nn12	1.17 nM
CCN/C(=N\C#N)c1cnc2ccc(N3C[C@@H](F)C[C@@H]3c3cc(F)ccc3SC)nn12	0.97 nM
CSc1ccc(F)cc1[C@H]1CCCN1c1ccc2ncc(/C(=N/C#N)NCc3cccc(O)c3)n2n1	1.44 nM

What reported IC50 corresponds to CSc1ccc(F)cc1[C@H]1C[C@H](F)CN1c1ccc2ncc(/C(=N/C#N)NC3CCCCC3)n2n1 on TrkA (Homo sapiens, UniProt P04629)? 1.52 nM

Hello, I am looking for reported IC50 with TrkA (Homo sapiens, UniProt P04629) for CSc1ccc(F)cc1[C@H]1CCCN1c1ccc2ncc(/C(=N/C#N)N[C@@H]3CCCOC3)n2n1 . Could you help? 0.95 nM
